Numbers sourced from patent US20050075375A1.

system: monocistronic NK5.1 HCV replicon in Huh7 cells; test: HCV replicon assay, monocistronic replicon cell line; type: cell-based, hepatitis C virus; conditions: Hepatitis C virus, Huh-7, 72 h; table T3 (compounds 471-640); monocistronic replicon in Huh7 cells, 3 days incubation, HCV RNA/GAPDH RNA by TaqMan RT-PCR; read-out: Mono EC50 Median
pEC50: −log10 of the molar value.

Smiles Code | pEC50
Brc1cccnc1-c1n[nH]c(-c2cccc3ccccc23)n1 | < 4.49
Cn1nc(-c2ccccn2)nc1-c1cc([N+](=O)[O-])ccc1O | 4.96
Oc1c(Br)cc(Cl)cc1-c1nc(-c2ccccn2)n[nH]1 | 6.30
CC(C)(C)c1ccc(O)c(-c2nc(-c3ncccc3Br)n[nH]2)c1 | 5.14
FC(F)(F)c1ccc(-c2n[nH]c(-c3cccc(Br)c3)n2)nc1 | < 4.72
Oc1ccc(Br)cc1-c1ncn(-c2ncccc2C(F)(F)F)n1 | 5.42
Oc1ccccc1-c1nc(-c2cnccn2)n[nH]1 | < 4.49
Oc1ccc(Cl)cc1-c1nc(-c2ncccc2C(F)(F)F)n[nH]1 | 5.39
Oc1c(Br)cc(Br)cc1-c1nc(-c2ccccn2)n[nH]1 | 6.22
COc1ccc(-c2nc(-c3ncccc3C)nn2C)c(O)c1 | 5.19
Oc1ccc(O)c(-c2nc(-c3cnccn3)n[nH]2)c1 | < 4.49
Oc1ccc(F)cc1-c1nc(-c2ncccn2)n[nH]1 | < 4.49
COc1ccc(-c2nc(-c3ccccn3)nn2C)c(O)c1 | < 4.49
Oc1ccc2ccccc2c1-c1nc(-c2ccccn2)n[nH]1 | < 4.72
COc1ccc(O)c(-c2nc(-c3ccccn3)nn2C)c1 | < 4.49
Cn1nc(-c2ccccn2)nc1-c1cc(Cl)cc(Br)c1O | 5.60
CCOc1cccc(-c2nc(-c3ncccn3)n[nH]2)c1O | < 4.49
COc1ccc(O)c(-c2nc(-c3ncccn3)n[nH]2)c1 | < 4.49
Fc1ccccc1-c1nc(-c2cnccc2C(F)(F)F)n[nH]1 | < 4.49
COc1ccc(O)c(-c2nc(-c3ccc(N)cn3)n[nH]2)c1 | < 4.72
Oc1ccc(O)c(-c2nc(-c3ccc(C(F)(F)F)cn3)n[nH]2)c1 | < 4.72
O=[N+]([O-])c1cccc(-c2nc(-c3ncccc3C(F)(F)F)n[nH]2)c1 | < 4.72
Nc1cccnc1-c1n[nH]c(-c2cc(Br)ccc2O)n1 | < 5.49
Cc1cccnc1-c1nc(-c2ccc(OCc3ccccc3)cc2O)n(C)n1 | < 5.49
Oc1ccc2ccccc2c1-c1nc(-c2ccc(C(F)(F)F)cn2)n[nH]1 | < 4.72
O=[N+]([O-])c1ccc(O)c(-c2nc(-c3ccc(C(F)(F)F)cn3)n[nH]2)c1 | < 4.72
CC(C)(C)c1ccc(O)c(-c2nc(-c3ncccc3C(F)(F)F)n[nH]2)c1 | < 4.72
Cc1cccnc1-c1n[nH]c(-c2ccccc2Br)n1 | 5.14
Cc1cccnc1-c1nc(-c2cc(Br)ccc2O)n(C)n1 | 5.62
O=[N+]([O-])c1ccc(O)c(-c2nc(-c3ncccc3C(F)(F)F)n[nH]2)c1 | < 4.72
COc1ccc(-c2nc(-c3cnccn3)n[nH]2)c(O)c1 | < 4.49
CCOc1cccc(-c2nc(-c3cnccn3)n[nH]2)c1O | < 4.49
Oc1ccccc1-c1nc(-c2ncccc2Br)n[nH]1 | 4.82
COc1ccc(O)c(-c2nc(-c3ncccc3C(F)(F)F)nn2C)c1 | 4.51
Cn1nc(-c2ccccn2)nc1-c1cc(O)ccc1O | 4.42
COc1cccc(-c2nc(-c3ncccc3Br)n[nH]2)c1O | < 4.49
Fc1cccc(F)c1-c1nc(-c2cnccc2C(F)(F)F)n[nH]1 | < 4.49
COc1cccc(-c2nc(-c3ncccc3C(F)(F)F)n[nH]2)c1 | < 4.72

---

test system: monocistronic NK5.1 HCV replicon in Huh7 cells; assay: HCV replicon assay, monocistronic replicon cell line; format: cell-based, hepatitis C virus; settings: Hepatitis C virus, Huh-7; monocistronic NK5.1 HCV replicon in Huh7 cells; median value; read-out: Mono EC50 Median
Parameter: EC50

Smiles Code | Parameter | Result
COc1cccc(-c2nc(-c3ccccn3)n[nH]2)c1O | EC50 | > 19 µM
COc1cccc(O)c1-c1nc(-c2ncccc2C)no1 | EC50 | > 10 µM
Oc1ccc(Cl)cc1-c1nc(-c2nccc3ccccc23)n[nH]1 | EC50 | > 19 µM
Oc1cc(OCc2ccccc2)ccc1-c1nc(-c2cnccc2C(F)(F)F)n[nH]1 | EC50 | > 19 µM
COc1cccc(-c2nc(-c3cccc(C)n3)n[nH]2)c1O | EC50 | > 19 µM
O=[N+]([O-])c1cccc(-c2nc(-c3nccc4ccccc34)n[nH]2)c1 | EC50 | > 19 µM
Cc1cccc(-c2n[nH]c(-c3c(O)ccc4ccccc34)n2)n1 | EC50 | > 19 µM
Oc1ccc(Br)cc1-c1nc(-c2ccccn2)n[nH]1 | EC50 | 4.3 µM
Oc1ccccc1-c1nnc(-c2ccccc2F)o1 | EC50 | 18 µM

---

tested on: monocistronic NK5.1 HCV replicon in Huh7 cells; experiment: HCV replicon assay, monocistronic replicon cell line; assay type: cell-based, hepatitis C virus; details: Hepatitis C virus, Huh-7, 72 h; table T3 (compounds 471-640); monocistronic replicon in Huh7 cells, 3 days incubation, HCV RNA/GAPDH RNA by TaqMan RT-PCR; read-out: Mono EC50 Median
Parameter: log10 of EC50 (log10 of the value in µM)

Smiles Code | log10 of EC50
O=[N+]([O-])c1ccc(O)c(-c2nc(-c3cnccn3)n[nH]2)c1 | 1.20
Cn1nc(-c2ccccn2)nc1-c1ccc(OCc2ccccc2)cc1O | 0.70
COc1cccc(-c2nc(-c3ncccc3C)nn2C)c1O | 1.26
Oc1ccc(Cl)cc1-c1nc(-c2ncccn2)n[nH]1 | 0.81
Oc1ccc(O)c(-c2nc(-c3ncccc3Br)n[nH]2)c1 | 0.79
Oc1cc(OCc2ccccc2)ccc1-c1nc(-c2ncccn2)n[nH]1 | 1.41
Oc1c(-c2nc(-c3cnccn3)n[nH]2)ccc2ccccc12 | 1.20
Cc1cccnc1-c1nc(-c2cc(O)ccc2O)n(C)n1 | 1.55
CC(C)(C)c1ccc(O)c(-c2nc(-c3cnccn3)n[nH]2)c1 | 0.95
Oc1ccc(F)cc1-c1nc(-c2ncccc2Br)n[nH]1 | 0.87
CC(C)c1ccc(-c2nc(-c3ncccc3Br)n[nH]2)cc1 | 1.08
Oc1c(Br)cc(Br)cc1-c1nc(-c2cnccn2)n[nH]1 | 1.15
Oc1ccc(Br)cc1-c1nc(-c2ncccc2Br)n[nH]1 | 0.73
Oc1ccc2ccccc2c1-c1nc(-c2cnccn2)n[nH]1 | 0.85
Oc1ccc(F)cc1-c1nc(-c2cnccn2)n[nH]1 | 1.26
Oc1c(Cl)cc(Cl)cc1-c1nc(-c2ccccn2)n[nH]1 | -0.52
Cn1nc(-c2ccccn2)nc1-c1c(O)ccc2ccccc12 | 0.95

---

Listed here: items and their measured EC50.
tested on: monocistronic NK5.1 HCV replicon in Huh7 cells; assay: HCV replicon assay, monocistronic replicon cell line; type: cell-based, hepatitis C virus; details: Hepatitis C virus, Huh-7; monocistronic NK5.1 HCV replicon in Huh7 cells; median value; read-out: Mono EC50 Median

Smiles Code | EC50
COc1ccc(O)c(-c2nc(-c3ccoc3)no2)c1 | 15 µM
COc1ccccc1-c1nnc(-c2ncc(C(F)(F)F)cc2Cl)o1 | > 32 µM
COc1ccc(-c2nc(-c3ccc(C(F)(F)F)cn3)no2)c(O)c1 | > 32 µM

---

tested on: monocistronic NK5.1 HCV replicon in Huh7 cells; test: HCV replicon assay, monocistronic replicon cell line; assay type: cell-based, hepatitis C virus; conditions: Hepatitis C virus, Huh-7; monocistronic NK5.1 HCV replicon in Huh7 cells; median value; read-out: Mono EC50 Median
pEC50: −log10 of the molar value.

Compound | Target Under Test | pEC50
COc1cccc(-c2nc(-c3ccc(C(F)(F)F)cn3)no2)c1 [Compound 220] | monocistronic NK5.1 HCV replicon in Huh7 cells | < 4.49
Cc1cccc(-c2n[nH]c(-c3cccc(Br)c3)n2)n1 [Compound 463] | monocistronic NK5.1 HCV replicon in Huh7 cells | 4.72
COc1ccccc1-c1nnc(-c2ccccn2)o1 [Compound 344] | monocistronic NK5.1 HCV replicon in Huh7 cells | < 4.49
COc1ccc(-c2nc(-c3ncccc3C(F)(F)F)no2)c(O)c1 [Compound 211] | monocistronic NK5.1 HCV replicon in Huh7 cells | 4.96
O=[N+]([O-])c1ccccc1-c1nnc(-c2ccccc2O)o1 [Compound 321] | monocistronic NK5.1 HCV replicon in Huh7 cells | < 4.49
Cc1cccnc1-c1n[nH]c(-c2cc(C(C)(C)C)ccc2O)n1 [Compound 441] | monocistronic NK5.1 HCV replicon in Huh7 cells | < 5.00
Cc1cccnc1-c1noc(-c2ccc(N)cc2O)n1 [Compound 277] | monocistronic NK5.1 HCV replicon in Huh7 cells | 5.22
FC(F)(F)c1ccncc1-c1n[nH]c(-c2ccc(Br)cc2)n1 [Compound 430] | monocistronic NK5.1 HCV replicon in Huh7 cells | < 4.72
COc1ccc(-c2nc(-c3cccc(C)n3)n[nH]2)c(O)c1 [Compound 401] | monocistronic NK5.1 HCV replicon in Huh7 cells | < 4.72
